- target_desc: VASP/EVH1 domain (Homo sapiens, UniProt P50552)
- Construct: the EVH1 domain of a completely ^15N-labelled VASP protein
- Sequence (P50552 2-113): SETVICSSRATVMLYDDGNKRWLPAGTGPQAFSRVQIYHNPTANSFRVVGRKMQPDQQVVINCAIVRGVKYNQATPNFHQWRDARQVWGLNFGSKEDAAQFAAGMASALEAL
- assay_overview: Fluorescence titration of ligand peptides
- Format: binding
Reported pKd values for a set of compounds
Interpret pKd as the negative base-10 log of the concentration measured in mol/L.

Ask | Give pKd (VASP/EVH1 domain (Homo sapiens, UniProt P50552)) of the following compound: CC(C)C[C@H](NC(=O)[C@H](CCC(=O)O)NC(=O)[C@H](CC(=O)O)NC(=O)[C@H](CCC(=O)O)NC(=O)[C@@H](NC(=O)[C@@H]1CC[C@@H]2C=C[C@H]3CCN(C(=O)[C@@H]4CC[C@@H]5C=C[C@H]6CCN(C(=O)[C@H](Cc7ccccc7)NC(=O)[C@H](CCC(=O)O)NC(=O)[C@H](Cc7ccccc7)NC(=O)[C@@H](N)CO)[C@@H]6C(=O)N54)[C@@H]3C(=O)N21)[C@@H](C)O)C(=O)O [SFEFppppTEDEL]
Reply | 4.35

Ask | Give pKd (VASP/EVH1 domain (Homo sapiens, UniProt P50552)) of the following compound: CC(C)C[C@H](NC(=O)[C@H](CCC(=O)O)NC(=O)[C@H](CC(=O)O)NC(=O)[C@H](CCC(=O)O)NC(=O)[C@@H](NC(=O)[C@@H]1CC[C@@H]2C=C[C@H]3CCN(C(=O)[C@@H]4CCCN4C(=O)[C@@H]4CCCN4C(=O)[C@H](Cc4ccccc4)NC(=O)[C@H](CCC(=O)O)NC(=O)[C@H](Cc4ccccc4)NC(=O)[C@@H](N)CO)[C@@H]3C(=O)N21)[C@@H](C)O)C(=O)O [SFEFPPppTEDEL]
Reply | 4.59

Ask | Give pKd (VASP/EVH1 domain (Homo sapiens, UniProt P50552)) of the following compound: CC(C)C[C@H](NC(=O)[C@H](CCC(=O)O)NC(=O)[C@H](CC(=O)O)NC(=O)[C@H](CCC(=O)O)NC(=O)[C@@H](NC(=O)[C@@H]1CCCN1C(=O)[C@@H]1CCCN1C(=O)[C@@H]1CC[C@@H]2C=C[C@H]3CCN(C(=O)[C@H](Cc4ccccc4)NC(=O)[C@H](CCC(=O)O)NC(=O)[C@H](Cc4ccccc4)NC(=O)[C@@H](N)CO)[C@@H]3C(=O)N21)[C@@H](C)O)C(=O)O [SFEFppPPTEDEL]
Reply | 4.09

Where do the numbers come from? From patent US8242105B2.
